# System: OVCAR-8
# Experiment Notes: NCI tumour cell line growth inhibition, 48 h
Active and inactive are the calls of the source. Cut-off read from the data, not from the text of the source: active = GI50 up to about 1.1 µM and inactive = higher.
Give your call using only these classes: active, inactive

Completed entries (count: 4):
Molecule: COc1cc(N(CCC#N)CCC#N)ccc1/C=C1\SC(=S)NC1=O
Class Name: inactive

Molecule: CCC(CS(=O)(=O)O)[N+](=O)[O-] (stereo not given)
Class Name: inactive

Molecule: CNC(=O)/C(C#N)=C(\N)N1CCCC1
Class Name: inactive

Molecule: CC1CC/C(=C\c2ccc(N(C)C)cc2)C2=C1C(c1ccc(N(C)C)cc1)NC(=S)N2 (stereo not given)
Class Name: inactive

Could you check what this test reported for CCC1CN2CCc3cc(OC)c(OC)cc3C2CC1CC1c2cc(OC)c(OC)cc2CCN1C(=O)C1CCCN1 (stereo not given) ?
inactive

###

# Tested on: MOLT-4
# Experiment Notes: NCI tumour cell line growth inhibition, 48 h
Calls of active or inactive are those of the source. Rule as the data show it: active = GI50 up to about 1.1 µM and inactive = higher.
Give your call using only these classes: T = active, F = inactive

Compound: CNC(=O)/C(C#N)=C(\N)N1CCCC1
Class Name: F

Could you check what this test reported for COc1cccc(/C(Cl)=C(\C=O)c2cccc(OC)c2)c1 ?
F

Repeat with COC1CCC(OC)C(C2(C3CC(OC)CCC3OC)OC(=O)c3ccccc32)C1 (configuration not stated)
F

Repeat with CON(C)C(C#N)=C(C#N)C#N
F

Repeat with CN1CCC23c4c5ccc(O)c4OC2c2[nH]c4ccccc4c2CC3(O)C1C5 (configuration not stated)
F

Repeat with C=C[C@H]1C=Cc2c(OC)cccc2[C@@H]1COP1(=S)NC(C)C(c2ccccc2)O1 (some centres not stated)
F

Repeat with CCOC(=O)Nc1sc2c(c1C#N)CC(C)CC2 (configuration not stated)
F

Repeat with COc1ccc(/C=C/C(=O)c2sc(NC(=S)NC(=O)c3ccccc3F)nc2C)cc1OC
F

Repeat with O=C(O)Cc1ccc(-n2nnc3c(=O)[nH][nH]c(=O)c32)cc1
F

Repeat with C/C(=N\[N+](C)(C)C)c1ccc(C)c(C)c1
F

###

# Test system: OVCAR-4
# Experiment Notes: NCI tumour cell line growth inhibition, 48 h
The source made the active and inactive calls. Cut-off read from the data, not from the text of the source: active = GI50 up to about 1.1 µM and inactive = higher.
Quantity Kind: GI50

Compound: OC[C@H]1C[C@@H]2Cc3ccccc3N2N1
Result: > 100 µM (inactive)
--
Compound: O=C(O)c1cc(C(=O)O)nc(C(=O)O)c1
Result: > 100 µM (inactive)
--
Compound: COc1cc(N(CCC#N)CCC#N)ccc1/C=C1\SC(=S)NC1=O
Result: > 100 µM (inactive)

// map COc1c(O)c2ccccc2c2cc(O)ccc12 to recorded GI50 (system: OVCAR-4)
6.56 µM (inactive)

Repeat with CC(C)C(/N=C1\CC2CCC1(C(=O)Nc1ccccc1O)C2(C)C)c1ccccc1 (stereo not given)
> 10 µM (inactive)

Repeat with CSc1c(C(=O)Nc2ccc(Cl)cc2)c(N)n(N)c(=O)c1C#N
68.5 µM (inactive)

Repeat with CCN(CC)c1c(C(=O)/C=C/c2ccccc2)c(-c2ccccc2)nn(C)c1=O
4.78 µM (inactive)

Repeat with COC(=O)[C@H](Cc1ccccc1)NC(=O)N(CCNC(=O)OC(C)(C)C)c1ccccc1
> 100 µM (inactive)

Repeat with CC(=O)NNc1nc(C)c(C(=O)NNC(=O)C(=O)Nc2ccc([N+](=O)[O-])cc2C#N)s1
45.3 µM (inactive)

Repeat with COc1ccc(-c2cc(-c3ccccc3)n(C3OC(COC(C)=O)C(OC(C)=O)C(OC(C)=O)C3OC(C)=O)c(=S)c2C#N)cc1 (stereo not given)
2.6 µM (inactive)

Repeat with COc1ccc2oc3cccc(NCCN(C)C)c3c(=O)c2c1
12.7 µM (inactive)

Repeat with Cn1cnc([N+](=O)[O-])c1Sc1nc(N)nc2c1ncn2C1OC(CO)C(O)C1O (stereo not given)
16.4 µM (inactive)

Repeat with C=CC[C@@H]1C=C[C@@H](C(=O)OC)n2c(=O)n(-c3ccccc3)c(=O)n21
> 100 µM (inactive)

Repeat with O=C(/C=C/c1cccs1)c1cccc(C(=O)/C=C/c2cccs2)n1
> 100 µM (inactive)

Repeat with Oc1ccc2c3c1OC1c4[nH]c5c(c4CC4(O)C(C2)N(CC2CC2)CC[C@]314)CC1(O)C2Cc3ccc(O)c4c3[C@@]1(CCN2CC1CC1)C5O4 (stereo not given in full)
29.8 µM (inactive)

Repeat with [O-][S+]1SC(=S)C2C=CC=CC21 (stereo not given)
> 100 µM (inactive)

###

# Tested on: HT-29
# Experiment Notes: NCI tumour cell line growth inhibition, 48 h
Active and inactive are the calls of the source. No stated cut-off is given here; in the data, active = GI50 up to about 1.1 µM and inactive = higher.
Give your call using only these classes: active, inactive

Completed entries (count: 8):
Compound: N#Cc1ccc(Oc2nc3ccccc3nc2C(=O)O)cc1
Class Name: inactive

Compound: CCCC(=O)NC(C(=O)OCC)(N1CCOCC1)C(F)(F)F (stereo not given)
Class Name: inactive

Compound: CC12CCc3ccccc3C1=Nc1ccccc12 (stereo not given)
Class Name: inactive

Compound: CC(C)C1(NC(=O)C2CC3c4cccc5[nH]cc(c45)CC3N(C)C2)OC2(O)C3CCCN3C(=O)C(Cc3ccccc3)N2C1=O (stereo not given)
Class Name: inactive

Compound: COC(=O)c1ccccc1C1CN=NC12Cc1c(ccc(C)c1C)C2=O (stereo not given)
Class Name: inactive

Compound: CN(C)CCCc1c[nH]c2ccccc12
Class Name: inactive

Compound: COC(=O)/N=C(\NC(=O)OC)Nc1ccc(Oc2ccccc2)cc1NC=O
Class Name: active

Compound: COc1ccc(/N=C(C)/C(C)=N/c2ccc(OC)cc2)cc1
Class Name: inactive

Could you check what this test reported for O=C(c1ccccc1)c1ccc(N2C(=O)/C(=C/c3cccc(Oc4ccccc4)c3)N=C2c2ccccc2)c(N2C(=O)/C(=C/c3cccc(Oc4ccccc4)c3)N=C2c2ccccc2)c1 ?
inactive

Repeat with OCCCCCCOc1ccc(-c2cc(-c3ccccn3)nc(-c3ccccn3)c2)cc1
active

###

# Test system: U-251
# Experiment Notes: NCI tumour cell line growth inhibition, 48 h
Active and inactive are the calls of the source. Rule as the data show it: active = GI50 up to about 1.1 µM and inactive = higher.
# key: entry, value: GI50

Param item = O=C(Nc1ccccc1[N+](=O)[O-])c1ccccc1 ; retrieve measured GI50.
> 100 µM (inactive)

Repeat with OC[C@H]1C[C@@H]2Cc3ccccc3N2N1
> 100 µM (inactive)

Repeat with C=CC[C@@H]1C=C[C@@H](C(=O)OC)n2c(=O)n(-c3ccccc3)c(=O)n21
> 100 µM (inactive)

Repeat with CCC(CS(=O)(=O)O)[N+](=O)[O-] (centres undefined)
> 100 µM (inactive)

###

# Test system: Malme-3M
# Experiment Notes: NCI tumour cell line growth inhibition, 48 h
Active and inactive are the calls of the source. Cut-off read from the data, not from the text of the source: active = GI50 up to about 1.1 µM and inactive = higher.
Quantity Kind: GI50

Check out these entries, answers already filled in.
Compound: CC(C)=CCC/C(C)=C/CO
Result: > 100 µM (inactive)
//
Compound: CC(C)c1cccc(C(C)C)c1NC(=O)/C(Cc1nc2ccc(Cl)cc2nc1O)=N\NC(=O)C[N+](C)(C)C
Result: > 100 µM (inactive)
//
Compound: C=C1C2CCCC1C1(S(C)(=O)=O)CCCCC21O (stereo unspecified)
Result: > 100 µM (inactive)
//
Compound: CCOP(=O)(OCC)/C(C#N)=C/c1ncc[nH]1
Result: > 100 µM (inactive)
//
Compound: N#C/C(=C\c1cc(O)cc(O)c1)C(N)=O
Result: > 100 µM (inactive)
//
Compound: Cc1c2c(c(C)n1-c1ccccc1)C(=O)N(CCSC(=N)N)C2=O
Result: > 100 µM (inactive)
//
Compound: O=C(O)c1cc(C(=O)O)nc(C(=O)O)c1
Result: > 100 µM (inactive)
//
Compound: Sc1ncnc2c1ncn2C1CCCO1 (stereo unspecified)
Result: > 100 µM (inactive)
//
Compound: COc1ccc(/C=C(/C#N)C(N)=O)cc1OC
Result: > 100 µM (inactive)
//
Compound: COc1ccc(OC)c2c(C(=O)O)c(C(C)c3ccccc3)ccc12 (stereo unspecified)
Result: > 100 µM (inactive)

Param item = O=C(/C=C/c1ccc(OCc2ccccc2)cc1)NCc1ccc(C(=O)NCc2ccccc2)cc1 ; retrieve measured GI50.
> 100 µM (inactive)

###

# System: OVCAR-8
# Experiment Notes: NCI tumour cell line growth inhibition, 48 h
Active and inactive are the calls of the source. Rule as the data show it: active = GI50 up to about 1.1 µM and inactive = higher.
Quantity Kind: GI50

Check out these entries, answers already filled in.
Compound: COC(=O)c1ccccc1C1CN=NC12Cc1c(C)ccc(C)c1C2=O (stereo unspecified)
Tested System: OVCAR-8
GI50: > 100 µM (inactive)

Compound: CCCCC1Cc2ccccc2-c2n1c1ccccc1[n+]2C (stereo unspecified)
Tested System: OVCAR-8
GI50: 21.9 µM (inactive)

Compound: O=C1C(Cl)N(c2ccccc2[N+](=O)[O-])C1c1c[nH]c2ccccc12 (stereo unspecified)
Tested System: OVCAR-8
GI50: > 100 µM (inactive)

Compound: NC(=O)COC(=O)c1c(Cl)nc2sccn12
Tested System: OVCAR-8
GI50: > 100 µM (inactive)

Shift focus to the following entry.
Param item = COc1ccc(S(=O)(=O)O)cc1NS(=O)(=O)c1ccc(C)cc1 ; retrieve measured GI50.
> 100 µM (inactive)
